Where these numbers come from: patent US4395413A

Experiment: acute toxicity on white mice (strain CFLP)
Settings: mouse, in vivo, po, per os, 4 days observation, read-out: LD50 per os.
Parameter LD50 at 96 h: see the listing below.
METRIC_NAME: LD50 at 96 h (mg/kg)

[
  {
    "COMPOUND": "CCCC=C1CCCCC1=NOCCCN1CCN(C)CC1",
    "METRIC_NAME": "LD50 at 96 h",
    "RESULT_UNITS": "mg/kg",
    "VALUE_REPORTED": 1600
  },
  {
    "COMPOUND": "CCCCCCCC=C1CCCCC1=NOCCCN1CCN(C)CC1",
    "METRIC_NAME": "LD50 at 96 h",
    "RESULT_UNITS": "mg/kg",
    "VALUE_REPORTED": 3000
  },
  {
    "COMPOUND": "CCCCC1CCCCC1=NOCCN(C)C (centres unmarked)",
    "METRIC_NAME": "LD50 at 96 h",
    "RESULT_UNITS": "mg/kg",
    "VALUE_REPORTED": 580
  },
  {
    "COMPOUND": "CCCCC=C1CCCCC1=NOCCCN1CCN(C)CC1",
    "METRIC_NAME": "LD50 at 96 h",
    "RESULT_UNITS": "mg/kg",
    "VALUE_REPORTED": 3000
  },
  {
    "COMPOUND": "CCCC=C1CCCCC1=NOCCCN1CCN(Cc2ccccc2)CC1",
    "METRIC_NAME": "LD50 at 96 h",
    "RESULT_UNITS": "mg/kg",
    "VALUE_REPORTED": 1450
  },
  {
    "COMPOUND": "CCCCC1CCCCC1=NOCC(C)CN(C)C (centres unmarked)",
    "METRIC_NAME": "LD50 at 96 h",
    "RESULT_UNITS": "mg/kg",
    "VALUE_REPORTED": 400
  },
  {
    "COMPOUND": "CCCCC=C1CCCCC1=NOCCCN1CCN(Cc2ccccc2)CC1",
    "METRIC_NAME": "LD50 at 96 h",
    "RESULT_UNITS": "mg/kg",
    "VALUE_REPORTED": 1800
  },
  {
    "COMPOUND": "CCCCC1CCCCC1=NOCCCN1CCN(Cc2ccccc2)CC1 (centres unmarked)",
    "METRIC_NAME": "LD50 at 96 h",
    "RESULT_UNITS": "mg/kg",
    "VALUE_REPORTED": 1300
  },
  {
    "COMPOUND": "CCCCC1CCCCC1=NOCCCN(C)C (centres unmarked)",
    "METRIC_NAME": "LD50 at 96 h",
    "RESULT_UNITS": "mg/kg",
    "VALUE_REPORTED": 430
  },
  {
    "COMPOUND": "C=CCC1CCCCC1=NOCCCN1CCN(C)CC1 (centres unmarked)",
    "METRIC_NAME": "LD50 at 96 h",
    "RESULT_UNITS": "mg/kg",
    "VALUE_REPORTED": 1600
  },
  {
    "COMPOUND": "CCCCCC=C1CCCCC1=NOCCCN1CCN(C)CC1",
    "METRIC_NAME": "LD50 at 96 h",
    "RESULT_UNITS": "mg/kg",
    "VALUE_REPORTED": 3000
  }
]
